# measured.target: human GLP-1 receptor (Homo sapiens)
# Construct: expressed in transfected cells
# Sequence (P43220 24-463): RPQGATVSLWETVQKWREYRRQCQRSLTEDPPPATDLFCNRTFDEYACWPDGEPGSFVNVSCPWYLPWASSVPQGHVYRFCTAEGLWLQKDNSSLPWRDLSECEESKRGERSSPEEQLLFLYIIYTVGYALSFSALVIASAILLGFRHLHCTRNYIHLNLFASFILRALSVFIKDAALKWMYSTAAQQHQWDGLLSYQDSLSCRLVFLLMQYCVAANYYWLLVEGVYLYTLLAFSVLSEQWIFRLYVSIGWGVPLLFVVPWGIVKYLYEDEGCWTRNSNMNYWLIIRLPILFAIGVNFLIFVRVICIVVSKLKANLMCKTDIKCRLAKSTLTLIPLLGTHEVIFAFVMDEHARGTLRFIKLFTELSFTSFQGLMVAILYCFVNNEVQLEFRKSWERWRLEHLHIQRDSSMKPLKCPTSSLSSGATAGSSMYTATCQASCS
# experiment.notes: GLP-1R cAMP Assay
# Type: cell-based
# protocol.conditions: cAMP accumulation in CHO cells stably overexpressing the human GLP-1 receptor; 30 min treatment; HitHunter cAMP kit; read-out: EC50
quantity.measured: EC50

Use these answered entries as a reference point.
compound: O=C(O)c1ccc2nc(CN3CCN(Cc4ccc(OCc5ccc(Cl)cc5Cl)o4)CC3)n(C[C@@H]3CCO3)c2c1
quantity.measured: EC50
result: > 500 nM

compound: N#Cc1cc(Cl)ccc1OCc1cccc(OC2CCN(Cc3nc4ccc(C(=O)O)cc4n3Cc3ncco3)CC2)c1
quantity.measured: EC50
result: < 50 nM

compound: O=C(O)c1ccc2nc(CN3CCc4[nH]c5ccc(OC(F)(F)F)cc5c4C3)n(C[C@@H]3CCO3)c2c1
quantity.measured: EC50
result: > 500 nM

compound: CCn1cncc1Cn1c(CN2CCN(C(=O)c3cccc(CNc4ccc(C)cc4Cl)c3)CC2)nc2ccc(C(=O)O)cc21
quantity.measured: EC50
result: > 500 nM

Provide each entry's EC50 from the list below.
1. C[C@H]1CN(C(=O)c2cnc(COc3ccc(Cl)cc3Cl)o2)CCN1Cc1nc2ccc(C(=O)O)cc2n1C[C@@H]1CCO1
2. Cc1ccc(OCc2ccc(C(=O)N3CCN(Cc4nc5ccc(C(=O)O)cc5n4C[C@@H]4CCO4)CC3)o2)c(C)c1
3. CCn1cncc1Cn1c(CN2CCC(Oc3ccnc(COc4ccc(C#N)cc4F)n3)CC2)nc2ccc(C(=O)O)cc21
4. CN(c1cccc(C(=O)N2CCN(Cc3nc4ccc(C(=O)O)cc4n3C[C@@H]3CCO3)CC2)c1)c1ccc(C2CC2)cc1Cl
5. O=C(O)c1ccc2nc(CN3CCN(C(=O)c4cccc(Oc5cc(Cl)ccc5Cl)c4)CC3)n(C[C@@H]3CCO3)c2c1

["< 50 nM", "50 to 500 nM", "< 50 nM", "< 50 nM", "> 500 nM"]

Provide each entry's EC50 from the list below.
1. O=C(O)c1ccc2nc(CN3CCC(Oc4cccc(COc5cc(Cl)cc(Cl)c5)c4)CC3)n(C[C@@H]3CCO3)c2c1
2. C[C@H]1C[C@@H](Oc2cccc(COc3ccc(Cl)cc3F)n2)CCN1Cc1nc2ccc(C(=O)O)cc2n1C[C@@H]1CCO1
3. O=C(O)c1ccc2nc(CN3CCN(C(=O)c4cccc(Cc5ccc(F)cc5)c4)CC3)n(C[C@@H]3CCO3)c2c1
4. CCn1cncc1Cn1c(CN2CCN(C(=O)c3cccc(Oc4ccc(C)cc4Cl)c3)CC2)nc2ccc(C(=O)O)cc21
5. N#Cc1cc(F)c(F)cc1OCc1nccc(OC2CCN(Cc3nc4ccc(C(=O)O)cc4n3C[C@@H]3CCO3)CC2)n1
6. CCn1cncc1Cn1c(CN2CCC(C(O)c3cccc(COc4ccc(C)cc4Cl)c3)CC2)nc2ccc(C(=O)O)cc21 (racemic)
7. N#Cc1ccc(OCc2nccc(OC3CCN(Cc4nc5ccc(C(=O)O)nc5n4C[C@@H]4CCO4)CC3)n2)c(F)c1

< 50 nM
< 50 nM
> 500 nM
50 to 500 nM
< 50 nM
< 50 nM
< 50 nM

Provide each entry's EC50 from the list below.
1. Cc1ccc(Oc2cc(C(=O)N3CCN(Cc4nc5ccc(C(=O)O)cc5n4C[C@@H]4CCO4)CC3)ncn2)cc1
2. Cc1c(Cl)cccc1OCc1ccc(CN2CCN(Cc3nc4ccc(C(=O)O)cc4n3C[C@@H]3CCO3)CC2)o1

1. < 50 nM
2. 50 to 500 nM
